# credit: paper PMC11003489

tested on: normal human lung fibroblasts (Wi-38); assay: MTT cytotoxicity screening on normal human lung fibroblasts; assay type: cell-based; conditions: WI-38, 72 h, read-out: Wi-38 EC50
parameter: EC50 (nM)
Give bare numbers, in nM.

O=C(c1nc2ccccc2[nH]1)[C@H]1[C@H](c2cccc(F)c2)[C@H]2CCCN2[C@@]12c1ccccc1-c1nc3ccccc3nc12	1100

Below are some compounds; for each one, tell me its EC50.
1. O=C(c1nc2ccccc2[nH]1)[C@H]1[C@H](c2ccccc2)C2CC3CCCCC3N2[C@@]12c1ccccc1-c1nc3ccccc3nc12 (stereo partly drawn)
2. O=C(c1nc2ccccc2[nH]1)[C@H]1[C@H](c2ccc(Cl)cc2Cl)C2CC3CCCCC3N2[C@@]12c1ccccc1-c1nc3ccccc3nc12 (stereo partly drawn)
3. O=c1[nH]cc(F)c(=O)[nH]1 [Compound 5-Fu, 5-fluorouracil, reference compound]
4. O=C(c1nc2ccccc2[nH]1)[C@H]1[C@H](c2ccccc2)[C@H]2CCCN2[C@@]12c1ccccc1-c1nc3ccccc3nc12
5. O=C(c1nc2ccccc2[nH]1)[C@H]1[C@H](c2cccs2)[C@H]2CCCN2[C@@]12c1ccccc1-c1nc3ccccc3nc12

Return:
1. 173
2. 359
3. 4190
4. 193
5. 252
